- Test system: 889142-216-R-J1-PDC complex spheroid viability
- protocol.details: Anticancer human tumor 889142-216-R-J1-PDC patient-derived bladder carcinoma cell line growth inhibition [POLQ]
- setup.conditions: second compound 1 µM; first compound 0.1 µM; hits give low values
parameter: viability, T/C

Solved cases (2 shown):
compound	viability, T/C
C#Cc1c(F)ccc2cc(O)cc(-c3ncc4c(N5CC6CCC(C5)N6)nc(OCC56CCCN5CC(F)C6)nc4c3F)c12 (stereo not drawn) + COC1C(OC(N)=O)C(O)C(Oc2ccc3c(O)c(NC(=O)c4ccc(O)c(CC=C(C)C)c4)c(=O)oc3c2C)OC1(C)C	91.8%
CCCS(=O)(=O)Nc1ccc(F)c(C(=O)c2c[nH]c3ncc(-c4ccc(Cl)cc4)cc23)c1F + Cc1cccc(N(C)C(=O)C2C(O)CCN2c2nc(C)cc(C(F)(F)F)c2C#N)c1	91.1%

Pending compound:
The reported 889142-216-R-J1-PDC complex spheroid viability viability, T/C of Cn1ncnc1[C@H]1c2n[nH]c(=O)c3cc(F)cc(c23)N[C@@H]1c1ccc(F)cc1 + COC1C(OC(N)=O)C(O)C(Oc2ccc3c(O)c(NC(=O)c4ccc(O)c(CC=C(C)C)c4)c(=O)oc3c2C)OC1(C)C is 79.6%

====

- System: 889142-216-R-J1-PDC complex spheroid viability
- protocol.details: Anticancer human tumor 889142-216-R-J1-PDC cell line growth inhibition [POLQ];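 also: spheroids exposed to compounds for seven days; 100% = DMSO vehicle control viability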
- setup.conditions: second compound 1 µM; first compound 3.16 µM; hits give low values
parameter: viability, T/C (%)
Number only, in %; omit the unit.

Solved cases (3 shown):
compound	study.target	viability, T/C, %
CNCc1ccc(-c2[nH]c3cc(F)cc4c3c2CCNC4=O)cc1 + COC1C(OC(N)=O)C(O)C(Oc2ccc3c(O)c(NC(=O)c4ccc(O)c(CC=C(C)C)c4)c(=O)oc3c2C)OC1(C)C	889142-216-R-J1-PDC complex spheroid viability	82.6
COc1cccc2c1C(=O)c1c(O)c3c(c(O)c1C2=O)CC(O)(C(=O)CO)CC3OC1CC(N)C(O)C(C)O1 (centres undefined) + Nc1ccc(C#CCN(C(=O)Cc2ncc(C(F)(F)F)cc2C(F)(F)F)c2ccc(F)cc2)nn1	889142-216-R-J1-PDC complex spheroid viability	1.14
Nc1ccn(C2OC(CO)C(O)C2(F)F)c(=O)n1 (centres undefined) + Nc1ccc(C#CCN(C(=O)Cc2ncc(C(F)(F)F)cc2C(F)(F)F)c2ccc(F)cc2)nn1	889142-216-R-J1-PDC complex spheroid viability	43.5

The reported 889142-216-R-J1-PDC complex spheroid viability viability, T/C of CNCc1ccc(-c2[nH]c3cc(F)cc4c3c2CCNC4=O)cc1 + Nc1ccc(C#CCN(C(=O)Cc2ncc(C(F)(F)F)cc2C(F)(F)F)c2ccc(F)cc2)nn1 is 92.3

The reported 889142-216-R-J1-PDC complex spheroid viability viability, T/C of CC1COCCN1c1cc(C2(O)CC3CCC(C2)O3)c2cnn(-c3ccn[nH]3)c2n1 (centres undefined) + Nc1ccc(C#CCN(C(=O)Cc2ncc(C(F)(F)F)cc2C(F)(F)F)c2ccc(F)cc2)nn1 is 29.6

The reported 889142-216-R-J1-PDC complex spheroid viability viability, T/C of O=c1[nH]cc(F)c(=O)[nH]1 + Cc1cccc(N(C)C(=O)C2C(O)CCN2c2nc(C)cc(C(F)(F)F)c2C#N)c1 is 71.8

====

Each entry below carries its recorded viability, T/C.
- Tested on: 889142-216-R-J1-PDC complex spheroid viability
- protocol.details: Anticancer human tumor 889142-216-R-J1-PDC cell line growth inhibition [POLQ];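 also: spheroids exposed to compounds for seven days; 100% = DMSO vehicle control viability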
- setup.conditions: second compound 0.0316 µM; first compound 0.0316 µM; hits give low values
Number only, in %; omit the unit.

Solved cases (5 shown):
molecule	parameter	recorded.measurement
CCc1cc2c(N3CCc4c(cc(Cn5ccnc5)cc4-c4cn(C)nc4C(F)(F)F)C3=O)ccnc2c(OC)n1 + COC1C(OC(N)=O)C(O)C(Oc2ccc3c(O)c(NC(=O)c4ccc(O)c(CC=C(C)C)c4)c(=O)oc3c2C)OC1(C)C	viability, T/C	120
C=CC(=O)N1CCN(c2nc(=O)n(-c3c(C)ccnc3C(C)C)c3nc(-c4c(O)cccc4F)c(F)cc23)C(C)C1 (centres undefined) + COC1C(OC(N)=O)C(O)C(Oc2ccc3c(O)c(NC(=O)c4ccc(O)c(CC=C(C)C)c4)c(=O)oc3c2C)OC1(C)C	viability, T/C	111
CCc1cc2c(N3CCc4c(cc(Cn5ccnc5)cc4-c4cn(C)nc4C(F)(F)F)C3=O)cc(C)nc2c(OC)n1 + Cc1cccc(N(C)C(=O)C2C(O)CCN2c2nc(C)cc(C(F)(F)F)c2C#N)c1	viability, T/C	109
COc1cc2cc(C(=O)CCC(=O)O)sc2cc1OC + COC1C(OC(N)=O)C(O)C(Oc2ccc3c(O)c(NC(=O)c4ccc(O)c(CC=C(C)C)c4)c(=O)oc3c2C)OC1(C)C	viability, T/C	95.1
Cn1ncnc1[C@H]1c2n[nH]c(=O)c3cc(F)cc(c23)N[C@@H]1c1ccc(F)cc1 + COC1C(OC(N)=O)C(O)C(Oc2ccc3c(O)c(NC(=O)c4ccc(O)c(CC=C(C)C)c4)c(=O)oc3c2C)OC1(C)C	viability, T/C	73.3

Input CCc1c2c(nc3ccc(O)cc13)-c1cc3c(c(=O)n1C2)COC(=O)[C@]3(O)CC + Cc1cccc(N(C)C(=O)C2C(O)CCN2c2nc(C)cc(C(F)(F)F)c2C#N)c1 . Output viability, T/C: 50.4

Input O=C(Nc1ccc(O)c(NS(=O)(=O)c2ccc(F)cc2)c1)c1ccc(-c2ccccc2)cc1 + Cc1cccc(N(C)C(=O)C2C(O)CCN2c2nc(C)cc(C(F)(F)F)c2C#N)c1 . Output viability, T/C: 103

Input COc1cc2cc(C(=O)CCC(=O)O)sc2cc1OC + Cc1cccc(N(C)C(=O)C2C(O)CCN2c2nc(C)cc(C(F)(F)F)c2C#N)c1 . Output viability, T/C: 85.5

Input CC1COCCN1c1cc(C2(O)CC3CCC(C2)O3)c2cnn(-c3ccn[nH]3)c2n1 (centres undefined) + Nc1ccc(C#CCN(C(=O)Cc2ncc(C(F)(F)F)cc2C(F)(F)F)c2ccc(F)cc2)nn1 . Output viability, T/C: 63.7

Input COc1cc(C2c3cc4c(cc3C(OC3OC5COC(C)OC5C(O)C3O)C3COC(=O)C23)OCO4)cc(OC)c1O (centres undefined) + Cc1cccc(N(C)C(=O)C2C(O)CCN2c2nc(C)cc(C(F)(F)F)c2C#N)c1 . Output viability, T/C: 83.9

Input C=CC(=O)N1CCN(c2nc(=O)n(-c3c(C)ccnc3C(C)C)c3nc(-c4c(O)cccc4F)c(F)cc23)C(C)C1 (centres undefined) + Cc1cccc(N(C)C(=O)C2C(O)CCN2c2nc(C)cc(C(F)(F)F)c2C#N)c1 . Output viability, T/C: 108

Input O=C(Nc1ccc(O)c(NS(=O)(=O)c2ccc(F)cc2)c1)c1ccc(-c2ccccc2)cc1 + Nc1ccc(C#CCN(C(=O)Cc2ncc(C(F)(F)F)cc2C(F)(F)F)c2ccc(F)cc2)nn1 . Output viability, T/C: 118

Input Nc1ccn(C2OC(CO)C(O)C2(F)F)c(=O)n1 (centres undefined) + Nc1ccc(C#CCN(C(=O)Cc2ncc(C(F)(F)F)cc2C(F)(F)F)c2ccc(F)cc2)nn1 . Output viability, T/C: 74.1

Input Cn1ncnc1[C@H]1c2n[nH]c(=O)c3cc(F)cc(c23)N[C@@H]1c1ccc(F)cc1 + Cc1cccc(N(C)C(=O)C2C(O)CCN2c2nc(C)cc(C(F)(F)F)c2C#N)c1 . Output viability, T/C: 85.1

====

- Tested on: 889142-216-R-J1-PDC complex spheroid viability
- protocol.details: Anticancer human tumor 889142-216-R-J1-PDC cell line growth inhibition [POLQ];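 also: spheroids exposed to compounds for seven days; 100% = DMSO vehicle control viability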
- setup.conditions: second compound 3.16 µM; first compound 10 µM; hits give low values
parameter: viability, T/C (%)
Number only, in %; omit the unit.

Solved cases (2 shown):
compound	study.target	viability, T/C, %
COc1cc2cc(C(=O)CCC(=O)O)sc2cc1OC + Cc1cccc(N(C)C(=O)C2C(O)CCN2c2nc(C)cc(C(F)(F)F)c2C#N)c1	889142-216-R-J1-PDC complex spheroid viability	78.9
CCc1cc2c(N3CCc4c(cc(Cn5ccnc5)cc4-c4cn(C)nc4C(F)(F)F)C3=O)ccnc2c(OC)n1 + Nc1ccc(C#CCN(C(=O)Cc2ncc(C(F)(F)F)cc2C(F)(F)F)c2ccc(F)cc2)nn1	889142-216-R-J1-PDC complex spheroid viability	105

Pending compound:
Input CC1COCCN1c1cc(C2(O)CC3CCC(C2)O3)c2cnn(-c3ccn[nH]3)c2n1 (stereo not drawn) + Cc1cccc(N(C)C(=O)C2C(O)CCN2c2nc(C)cc(C(F)(F)F)c2C#N)c1 . Output viability, T/C: 13.7
